Assay: Kinetic solubility in aqueous buffer pH 7.4 by total chemiluminescent nitrogen determination (Analiza)
Settings: aqueous buffer, pH 7.4, aqueous buffer, kinetic from dmso stock
# label = Y if solubility kinetic >= 90 µM else N

| Compound | Label class |
| --- | --- |
| CCn1c(=O)/c(=C2\Sc3ccccc3N2C)s/c1=C\c1ccccn1 [YM-08] | N |
| Cc1ccc(NC(=O)c2ccc(CN3CCN(C)CC3)cc2)cc1Nc1nc(-c2cccnc2)cs1 [Masitinib (AB1010)] | Y |
| Cc1cc2c(cc1C1(c3ccc(C(=O)O)cn3)CC1)C(C)(C)CCC2(C)C [LG 100268] | Y |
| N#CC(CCCN1CCN(/N=C/c2cccnc2)CC1)(c1ccccc1)c1ccccc1 [SC-26196] | N |
| COCC(=O)O[C@]1(CCN(C)CCCc2nc3ccccc3[nH]2)CCc2cc(F)ccc2[C@@H]1C(C)C [Mibefradil] | Y |
| O=C1CCc2cc(OCCCCc3nnnn3C3CCCCC3)ccc2N1 [Cilostazol (OPC 13013)] | N |
| O=C(NC1CC1)C(=O)C(Cc1ccccc1)NC(=O)[C@H]1CCC(=O)N1Cc1ccccc1 (some centres unmarked) [ABT-957 (Alicapistat)] | Y |
| COc1cc(N2CCC(N3CCN(C)CC3)CC2)ccc1Nc1ncc(Cl)c(Nc2ccccc2P(C)(C)=O)n1 [Brigatinib] | Y |

Task: Evaluate CC/C(=C(\c1ccc(O)cc1)c1ccc(OCCN(C)C)cc1)c1ccccc1 [Afimoxifene] : solubility kinetic at minimum 90 µM?
Result: N

###

This section presents molecules with their documented 1. Cell count (% control) values.
Test system: BV2 (mouse microglia) cell line
Test: pHrodo-myelin phagocytosis/cell viability high content imaging assay: viability (cell count, nuclear area, nuclear intensity)
Details: BV2; compound 10 uM; 48 hours treatment
Remember to quote the unit after the number.

Solved entries (count: 3):
| Molecule | 1. Cell count (% control) |
| --- | --- |
| CCc1cc2c(cc1N1CCC(N3CCOCC3)CC1)C(C)(C)c1[nH]c3cc(C#N)ccc3c1C2=O [UNC10245077A] | 128.2 % control |
| O=C(CCl)c1ccccc1Nc1cccc(C(F)(F)F)c1 [UNC10302842A] | 92.3 % control |
| CNC(=O)c1cccc(-c2ccc3c(N4CCOC[C@@H]4C)nc(N4CCOC[C@@H]4C)nc3n2)c1 [UNC10302837A] | 47.4 % control |

Looking up NCCCC[C@H](N[C@@H](CCc1ccccc1)C(=O)O)C(=O)N1CCC[C@H]1C(=O)O.O.O [UNC10302835A] , I see its 1. Cell count (% control) listed as 119.8 % control

Reported 1. Cell count (% control) for Cc1ccc(S(=O)(=O)O)cc1.Nc1n[nH]cc1-c1cc(Cl)ccc1Oc1cc(F)c(S(=O)(=O)Nc2cscn2)cc1Cl [UNC10303160A] was 121.5 % control

Record summary for CCN1CCN(Cc2ccc(NC(=O)c3ccc(C)c(NC(=O)c4cncc(-c5cccs5)c4)c3)cc2C(F)(F)F)CC1 [UNC10303158A] : reported 1. Cell count (% control) = 10.2 % control

Query COc1ccc(CCCN2CCC(COC(c3ccccc3)c3ccccc3)CC2)cc1 [UNC10303165A] yields 1. Cell count (% control) of 87.4 % control

So, Cl.N=C(CCl)NCCC[C@H](NC(=O)c1ccccc1)C(N)=O [UNC10303161A] ? Its 1. Cell count (% control) was 107.1 % control

The value of 1. Cell count (% control) measured for the molecule O=c1[nH]c2ccccc2n1C1CCN(CCCC(c2ccc(F)cc2)c2ccc(F)cc2)CC1 [UNC10101002A] turned out to be 77.1 % control

get_value(item= Cn1nccc1Nc1nccc(-c2ccn([C@H](CO)c3ccc(Cl)c(F)c3)c(=O)c2)n1 [UNC8131A] , readout=1. Cell count (% control)) returns 15.3 % control

Kindly note the recorded 1. Cell count (% control) for CN1C[C@H](Nc2cnn(C)c(=O)c2Br)C[C@H](c2ccccc2)C1 [UNC10303157A] , which is 85.0 % control

Reported 1. Cell count (% control) ( CC(=O)O[C@@H]1[C@@H](OC(C)=O)[C@@H](O)[C@H](Oc2c(-c3ccc(O)cc3)oc3cc(O)cc(O)c3c2=O)O[C@H]1C [UNC10303187A] ) = 146.1 % control

###

Tested on: BV2 (mouse microglia) cell line
Experiment: pHrodo-myelin phagocytosis/cell viability high content imaging assay: viability (cell count, nuclear area, nuclear intensity)
Conditions: BV2 cells, 10 uM compound, 48 hours treatment
Measure: 2. Nuclear Area (% Control)
Express your answer in % Control, writing the number without its unit.

Consider the worked cases shown below.
| Compound | 2. Nuclear Area (% Control) |
| --- | --- |
| CN(C)C/C=C/C(=O)Nc1cc2c(Nc3ccc(F)c(Cl)c3)ncnc2cc1O[C@H]1CCOC1 [UNC10302894A] | 107.0 |
| O=c1ncn2nc(Sc3ccc(F)cc3F)ccc2c1-c1c(Cl)cccc1Cl [UNC10303093A] | 100.4 |
| COc1ccc(/C=C/C(=O)c2ccc(OC)cc2OC)cc1 [UNC10121790A] | 107.4 |

Then there is this compound:
2. Nuclear Area (% Control) of COc1cccc2c(NCc3ccccc3)nc(-n3c(N)nc4ccccc43)nc12 [UNC10302841A] , assay on BV2 (mouse microglia) cell line, is 129.2

###

System: BV2 (mouse microglia) cell line
Test: pHrodo-myelin phagocytosis/cell viability high content imaging assay: viability (cell count, nuclear area, nuclear intensity)
Details: BV2; compound 10 uM; 48 hours treatment
Measure: 1. Cell count (% control)
The answer is to be given in % control; state only the numeric part.

| Molecule | Uom | 1. Cell count (% control) |
| --- | --- | --- |
| Oc1c(F)cc(-c2cnccc2-c2ccc(N3CCOCC3)cc2)cc1F [UNC10302871A] | % control | 98.2 |
| O=c1ccc2c(OCCCCc3ccccc3)c3ccoc3cc2o1 [UNC10100197A] | % control | 106.2 |
| CN(C)CCCOc1c(Br)cc(/C=C/C(=O)NCCCOc2c(Br)cc(CCN(C)C)cc2Br)cc1Br [UNC10302702A] | % control | 26.8 |
| COc1ccc(CC[C@@H](OC(=O)[C@@H]2CCCCN2C(=O)[C@H](c2cc(OC)c(OC)c(OC)c2)C2CCCCC2)c2cccc(OCC(=O)O)c2)cc1OC [UNC10302701A] | % control | 117.8 |
| CN(C)CC#Cc1ccc(OCCCc2sc(N3CCc4cccc(C(=O)Nc5nc6ccccc6s5)c4C3)nc2C(=O)O)c(F)c1 [UNC10302697A] | % control | 84.3 |

The reported value for CCn1cc(C(=O)O)c(=O)c2c(N)c(F)c(NC3CCCCC3)cc21 [UNC10302843A] in terms of 1. Cell count (% control) is 99.6

// 1. Cell count (% control) value for C[C@H](CCCC(C)(C)O)[C@H]1CC[C@H]2[C@@H]3CC=C4C[C@@H](O)CC[C@]4(C)[C@H]3CC[C@]12C [UNC10302834A] : 75.6

###

Tested on: BV2 (mouse microglia) cell line
Test: pHrodo-myelin phagocytosis/cell viability high content imaging assay: viability (cell count, nuclear area, nuclear intensity)
Details: BV2 cells, 10 uM compound, 48 hours treatment
Method: All AD Informer Set compounds were tested in two immortalized microglial cell lines, murine (BV2), and human (HMC3), in a high‐content imaging assay in duplicate by the Chu lab. Experimental details and all data can be found as supporting information files. The role of microglia in AD has been well documented and was thus chosen as a cell type in which to profile the AD Informer Set.[43], [44], [45] […] Cytotoxic effects can be assessed by considering multiple parameters. […]
Where a SMILES comes first, the peptide text is derived from it. [ ]: non-standard residue; d: D form. The star is where a group is joined. ξ: configuration not given here. ξF = NC(Cc1ccccc1)C(=O)O; Cbz = O=C(OCc1ccccc1)*
Measure: 2. Nuclear Area (% Control)
Only the number, expressed in % Control, is required.

Solved cases below.
| Compound | 2. Nuclear Area (% Control) |
| --- | --- |
| O=c1[nH]c(=O)n([C@H]2C[C@H](O)[C@@H](CO)O2)cc1/C=C/Br [UNC10100235A] | 117.1 |
| CN1C(N)=N[C@](C)(c2cc(NC(=O)c3ccc(F)cn3)ccc2F)CS1(=O)=O [UNC10303092A] | 108.1 |
| Cc1cc(NC(=O)Nc2ccc(F)c(F)c2)n(-c2ccccc2)n1 [UNC10302846A] | 104.7 |
| CC(C)(C(=O)O)c1ccc(C(O)CCCN2CCC(C(O)(c3ccccc3)c3ccccc3)CC2)cc1.Cl (centres unmarked) [UNC10100548A] | 103.6 |
| CCc1ccc(CCOc2ccc(CC3SC(=O)NC3=O)cc2)nc1.Cl (centres unmarked) [UNC10240376D] | 109.1 |
| O=C1CCc2cc(OCCCCc3nnnn3C3CCCCC3)ccc2N1 [UNC10100278A] | 103.2 |
| Cl.NC(=O)c1cnc(N[C@@H]2CCCC[C@@H]2N)nc1Nc1cccc(-n2nccn2)c1 [UNC10302682A] | 80.4 |
| c1cn2cc(-c3ccc4cn[nH]c4c3)nc(Nc3ccc(N4CCOCC4)cc3)c2n1 [UNC10302678A] | 102.9 |
| CCOC(=O)CS(=O)(=O)c1ccc([C@@H](CO)NC(=O)c2cc3c(Cl)c(Cl)c(C)cc3n2C)cc1 [UNC10302908A] | 117.3 |
| CC(C)[C@H](NC(=O)OCc1ccccc1)C(=O)NC(C=O)Cc1ccccc1 (stereo partly drawn) [UNC10302675A] (Cbz-Val-[ξF]-aldehyde) | 102.4 |

Measured 2. Nuclear Area (% Control) of CCCC[C@@H](C=O)NC(=O)[C@H](CC(C)C)NC(=O)OCc1ccccc1 [UNC10302674A] : 106.4

What the record says about O=S(=O)(c1ccccc1)N(CC(F)(F)F)c1ccc(C(O)(C(F)(F)F)C(F)(F)F)cc1 [UNC10302875A] : 2. Nuclear Area (% Control) is 107.3

O=C(Nc1c[nH]nc1-c1nc2cc(CN3CCOCC3)ccc2[nH]1)NC1CC1 [UNC10126643A] yielded 2. Nuclear Area (% Control) of 158.4
